Listed next: entries and their corresponding pKd.
- system_under_test: YU2 gp120, soluble monomer (HIV-1 isolate YU2 (clade B), UniProt P35961 32-498)
- experimental_details: BLI
Keep in mind that pKd stands for -log10 of concentration in molar terms.

binder: GEBT404, mature IgG (antibody, V domains shown) VH: EVQLVESGGGLAKPGGSLRLSCAASGFTFSNYWMYWVRQAPGKGLEWISAINSAGSRTYYPDSVKGRFTISRENAKNTLYLQMDSLRAEDTAVYYCAKGRIAIFGLVITYFDYWGQGVLVTVSS VL: DIQMTQSPSSLSASVGDRVTITCRASQGITNDLAWYQQKPGETPKLLIYDASSLQSGIPSRFSGSGSGTDFTLTISSLQPEDFATYYCQHYYSTPPTFGGGTKVEIK
pKd: 7.37

Now turn to the next binder.
Query: May I ask what pKd has been recorded for GEBT403, mature IgG (antibody, V domains shown) VH: EVQLVQSGAEVKKPGSSVKVSCKASGYTFTDYYMHWVRQAPGQGLEWMGEINPKTGGTNYAQKFQGRVTMTRDTSTSTAYMELSSLRSEDTAIYSCARGGQRLIPLRRFYFYYWGQGVLVTVSS VL: QSVLTQPPSVSGAPGQKVTISCTGSSSNIGGYDVHWYQQLPGMAPKLLIYDNNERPSGISDRFSGSKSGTSASLAITGLQTEDEADYYCQSYDSSMNAWVFGGGTRLTVL ?
Reply: 7.89
